Where these numbers come from: ChEMBL document CHEMBL1201862

- System: LXFL 529
- experimentNotes: NCI tumour cell line growth inhibition, 48 h
The source made the active and inactive calls. Rule as the data show it: active = GI50 up to about 1.1 µM and inactive = higher.
attributeMeasured: GI50

# molecule, GI50
rows = [
    ("CS(=O)(=O)ON1C(=O)c2ccc(N)cc2C1=O", "> 78.5 µM (inactive)"),
    ("Cc1ccc(C(=O)O)cc1NC(=O)c1cc(/C=C/c2ccccc2)[nH]c(=S)n1", "> 84.5 µM (inactive)"),
    ("Cc1ccc(S(=O)(=O)C(C#N)c2nc3ccccc3nc2-n2cccn2)cc1 (centres undefined)", "> 100 µM (inactive)"),
]

# evaluate next
Inquiry: Look up and report measured GI50 for this entry: `O=C(N/C(=C\c1cccc([N+](=O)[O-])c1)c1nc2c3c(ccc2[nH]1)C(=O)c1ccccc1C3=O)c1ccccc1`
Reply text: 16 µM (inactive)

* * *

- Tested on: OVCAR-4
- experimentNotes: NCI tumour cell line growth inhibition, 48 h
Calls of active or inactive are those of the source. Cut-off read from the data, not from the text of the source: active = GI50 up to about 1.1 µM and inactive = higher.
attributeMeasured: GI50

# map each compound to its GI50
1. Cc1cc(=O)oc2c1cc(OCC(=O)OCCN1CCCCC1)c1occ(C)c12
2. CCCC(=O)Nc1ncnc2c1ncn2C1OC2COP(=O)(O)OC2C1OC(=O)CCC (centres undefined)
3. COc1ccc([C@H]2[C@H]3COC(=O)[C@H]3C(C#N)=C3Sc4ccccc4N32)cc1
4. CC(=S)NC1C(Oc2ccc3c(C)cc(=O)oc3c2)OC(CO)C(O)C1O (centres undefined)

Reply text:
1: > 100 µM (inactive); 2: > 100 µM (inactive); 3: 33.7 µM (inactive); 4: > 100 µM (inactive)

Provide GI50 for all items below, preserving their order.
1. CCNC(=S)NNC(=O)C12CC3CC(CC(C3)C1)C2
2. Cc1nc2c(=O)n(-c3ccccc3)c3ccccc3c2o1

Reply text:
1: > 100 µM (inactive); 2: > 100 µM (inactive)

Batch: GI50 for all items listed.
1. OCCSCc1cc(Cl)cc(Cl)c1O
2. O=C(N/C=C/C=C/Sc1ccccc1)OCc1ccccc1
3. CN(Cc1cc(Cl)c(Cl)cc1NC(=O)CN)[C@H]1CCCC[C@@H]1N1CCCC1

Reply text:
["> 100 µM (inactive)", "21.7 µM (inactive)", "> 100 µM (inactive)"]

* * *

I'd appreciate it if you could supply GI50 values for the items below.
- Tested on: SK-OV-3
- experimentNotes: NCI tumour cell line growth inhibition, 48 h
The source made the active and inactive calls. Cut-off read from the data, not from the text of the source: active = GI50 up to about 1.1 µM and inactive = higher.

# annotated cases, reported GI50 shown
# compound, result
measured = [
    ("O=C(O)C12C3C4C1C1C2C3C41I (stereo not given)", "> 100 µM (inactive)"),
    ("CCN(CC)CCOC(c1ccccc1)c1ccccc1.CCOC(=O)Nc1ccc(S(=O)(=O)NCCCl)cc1.CCOC(=O)Nc1ccc(S(=O)(=O)NCCCl)cc1.Nc1ccc(C(=O)O)c(O)c1", "> 100 µM (inactive)"),
    ("C[C@]12CC(c3ccccc3O1)C(C#N)C(=O)N2 (stereo not given in full)", "> 100 µM (inactive)"),
]

Give GI50 for each of the items listed below.
1. Cc1oc2c(C)c3oc(=O)cc(C)c3cc2c1CNC(=O)[C@@H]1OCCOCCOCCOCCOCCOC1C(=O)O (stereo not given in full)
2. NS(=O)(=O)c1ccc(/N=N/c2cnc(O)c(O)c2)cc1
3. Cc1ccc(C)n2c1nc1cc3ccccc3cc12
4. CC(=N/NC(=S)N(C)C)/C(=N\NC(=S)N(C)C)c1ccccc1
5. O=C(Oc1ccccc1)c1cc2cc(CCl)ccc2oc1=O
6. COc1cccc(/C=C2\CCCCCC2=O)c1
7. CCn1c(=O)c2nc(SC)sc2n(-c2ccc(C)cc2)c1=O

Reply text:
> 100 µM (inactive)
> 100 µM (inactive)
32.4 µM (inactive)
1.98 µM (inactive)
28.6 µM (inactive)
> 100 µM (inactive)
> 100 µM (inactive)
